For each entry below, report its Ki value.
target: Sodium-dependent dopamine transporter (Homo sapiens, UniProt Q01959); experiment: Inhibition of […] uptake at wild type human DAT expressed in African green monkey COS7 cells after 90 mins; assay type: cell-based
Sequence (Q01959 whole entry): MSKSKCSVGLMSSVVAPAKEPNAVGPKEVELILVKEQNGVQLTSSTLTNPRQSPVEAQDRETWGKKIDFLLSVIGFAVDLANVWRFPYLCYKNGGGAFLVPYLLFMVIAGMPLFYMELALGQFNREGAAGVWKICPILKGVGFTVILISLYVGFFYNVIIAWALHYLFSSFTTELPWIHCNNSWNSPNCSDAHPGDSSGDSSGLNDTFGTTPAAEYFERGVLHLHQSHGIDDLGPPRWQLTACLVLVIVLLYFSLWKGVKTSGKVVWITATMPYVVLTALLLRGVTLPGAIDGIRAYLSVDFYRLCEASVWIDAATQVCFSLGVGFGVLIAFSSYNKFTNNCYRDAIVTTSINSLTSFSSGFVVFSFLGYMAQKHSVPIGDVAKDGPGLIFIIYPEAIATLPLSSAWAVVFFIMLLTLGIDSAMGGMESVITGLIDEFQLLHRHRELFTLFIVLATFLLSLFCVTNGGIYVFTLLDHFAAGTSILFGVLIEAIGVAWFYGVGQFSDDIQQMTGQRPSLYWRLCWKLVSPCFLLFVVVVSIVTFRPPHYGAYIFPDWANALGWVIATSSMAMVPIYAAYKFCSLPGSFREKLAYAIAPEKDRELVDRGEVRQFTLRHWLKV
Answers are plain numbers, in nM.

Solved entries:
molecule="CCOC(=O)[C@@H]1C2CCC(C[C@@H]1OC(c1ccc(F)cc1)c1ccc(F)cc1)N2C[C@H](N)C(C)C (mixture of isomers)" endpoint_label=Ki unit_symbol=nM measurement=221
molecule="CCOC(=O)[C@@H]1C2CCC(C[C@@H]1OC(c1ccc(F)cc1)c1ccc(F)cc1)N2CCc1c[nH]c2ccccc12 (mixture of isomers)" endpoint_label=Ki unit_symbol=nM measurement=147

Quick note, Ki for Fc1ccc(C(OC2CC3CCC(C2)N3CCc2c[nH]c3ccccc23)c2ccc(F)cc2)cc1 (stereo not drawn) landed at 253
